Reported values of optical density for individual entries
# targetDesc: Human Fc (human)
# assayProcedure: ELISA; negative control
endpoint: optical density (OD)

>>> resultvalue("367_A02 (antibody, V domains shown) VH: EVQLLESGGGLVQPGGSLRLSCAASGFTFDSYGMNWVRQAPGKGLEWVSSINYNSGYKGYADSVKGRFTISRDNSKNTLYLQMNSLRAEDTAVYYCARGATWHDTHLDYWGQGTLVTVSS VL: DIQMTQSPSSLSASVGDRVTITCRASQSIISYLNWYQQKPGKAPKLLIYAVTSRASGVPSRFSGSGSGTDFTLTISSLQPEDFATYYCQQSYDTPLTFGGGTKVEIK")
0.305
>>> resultvalue("372_B09 (antibody, V domains shown) VH: EVQLLESGGGLVQPGGSLRLSCAASGFTFSSYSMNWVRQAPGKGLEWVSSINYNSGYTSYADSVKGRFTISRDNSKNTLYLQMNSLRAEDTAVYYCARGATWHDTHLDYWGQGTLVTVSS VL: DIQMTQSPSSLSASVGDRVTITCRASQSILTYLNWYQQKPGKAPKLLIYAATSRASGVPSRFSGSGSGTDFTLTISSLQPEDFATYYCQQSYETPLTFGGGTKVEIK")
0.308
>>> resultvalue("365_A11 (antibody, V domains shown) VH: EVQLLESGGGLVQPGGSLRLSCAASGFTFDDYGMNWVRQAPGKGLEWVSGINYNSGYTSYADSVKGRFTISRDNSKNTLYLQMNSLRAEDTAVYYCARSANWHDTALDYWGQGTLVTVSS VL: DIQMTQSPSSLSASVGDRVTITCRASQSILSYLNWYQQKPGKAPKLVIYAATSLASGVPSRFSGSGSGTDFTLTISSLQPEDFATYYCQQSYESPLTFGGGTKVEIK")
0.299
